- Study System: T1, human IL-33 (R&D Systems, #3625-IL-010/CF) (human, UniProt O95760 112-270)
- T1 construct: Commercial recombinant protein; also called hIL-33; interleukin-33
- T1 sequence (looked up): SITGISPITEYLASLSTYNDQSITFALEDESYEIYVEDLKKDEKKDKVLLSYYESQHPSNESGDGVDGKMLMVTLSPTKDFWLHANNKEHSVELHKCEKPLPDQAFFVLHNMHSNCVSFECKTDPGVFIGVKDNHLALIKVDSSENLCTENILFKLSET
- Assay Details: SPR 25C, pH6.0 chase, mAb captured
// reported t½ Ratio (pH 7.4/pH 6.0) for each item listed

{"Binder": "H4H9663P (antibody, human IgG4, V domains shown, Human IgG4 Fc (H4H)) VH: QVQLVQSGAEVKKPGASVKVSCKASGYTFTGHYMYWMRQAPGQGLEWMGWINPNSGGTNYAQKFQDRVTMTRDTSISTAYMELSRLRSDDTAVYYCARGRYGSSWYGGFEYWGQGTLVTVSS VL: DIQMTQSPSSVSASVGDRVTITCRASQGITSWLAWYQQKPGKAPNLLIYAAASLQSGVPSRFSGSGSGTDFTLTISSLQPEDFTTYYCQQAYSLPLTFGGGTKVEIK", "t½ Ratio (pH 7.4/pH 6.0)": 2.7}
{"Binder": "H1M9559N (antibody, mouse IgG1, V domains shown, Human variable domains, mouse IgG1 Fc (H1M)) VH: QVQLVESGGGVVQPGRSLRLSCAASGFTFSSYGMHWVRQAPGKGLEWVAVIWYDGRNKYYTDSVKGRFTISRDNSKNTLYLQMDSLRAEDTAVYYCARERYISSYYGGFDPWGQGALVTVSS VL: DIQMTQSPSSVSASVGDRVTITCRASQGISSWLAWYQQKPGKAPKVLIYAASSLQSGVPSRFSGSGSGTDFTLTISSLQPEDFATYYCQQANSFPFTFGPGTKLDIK", "t½ Ratio (pH 7.4/pH 6.0)": 0.7}
{"Binder": "H4H9660P (antibody, human IgG4, V domains shown, Human IgG4 Fc (H4H)) VH: EVQLVESGGGLVQPGGSLRLSCAASGITLSSYGMSWVRQAPGKGLEWVASIFGSGGGPYYADSVKGRFTMSRDNSKNTLYLQMNSLRAEDTAVYYCAKDRYSGSYYGGFDYWGRGTLVTVSS VL: DIQMTQSPSSVSASVGDRVTITCRASQGITSWLAWYQQKPGKAPTLLIYAASSLQTGVPSRFSGSGSGTDFTLTISSLQPEHFATYYCQQANSFPPTFGGGTKVEIK", "t½ Ratio (pH 7.4/pH 6.0)": 3.2}
{"Binder": "H4H9670P (antibody, V domains shown, Human IgG4 Fc (H4H)) VH: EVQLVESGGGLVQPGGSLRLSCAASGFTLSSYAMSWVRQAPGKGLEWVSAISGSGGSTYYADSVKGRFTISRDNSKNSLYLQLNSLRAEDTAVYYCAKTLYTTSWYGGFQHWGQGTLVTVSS VL: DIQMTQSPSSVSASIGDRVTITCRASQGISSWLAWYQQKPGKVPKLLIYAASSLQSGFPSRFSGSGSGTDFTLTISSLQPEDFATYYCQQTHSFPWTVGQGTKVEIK", "t½ Ratio (pH 7.4/pH 6.0)": 2.9}
{"Binder": "H4H9671P (antibody, human IgG4, V domains shown, Human IgG4 Fc (H4H)) VH: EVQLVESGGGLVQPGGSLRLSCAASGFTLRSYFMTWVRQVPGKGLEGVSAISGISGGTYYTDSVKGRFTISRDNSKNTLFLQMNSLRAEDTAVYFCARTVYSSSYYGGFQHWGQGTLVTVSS VL: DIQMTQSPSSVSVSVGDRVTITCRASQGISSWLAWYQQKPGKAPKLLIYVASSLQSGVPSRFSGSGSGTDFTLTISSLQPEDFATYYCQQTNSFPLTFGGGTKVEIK", "t½ Ratio (pH 7.4/pH 6.0)": 4.6}
